# Tested on: Pseudomonas aeruginosa
# Procedure Text: Inhibition of Pseudomonas aeruginosa KPC-2 assessed as potentiation of piperacillin-induced antibacterial activity at 4 ug/ml by CLSI based broth microdilution method (reference value: > […] ug/ml)
Quantity: MIC (µg/mL)
Report as a plain number; the unit µg/mL is understood.

Fill in the blank: the reported MIC of CC1=C[C@@H](C(N)=O)N2C[C@@H]1N(OS(=O)(=O)O)C2=O is ____.
4

Fill in the blank: the reported MIC of CC1=C[C@@H](CO)N2C[C@@H]1N(OS(=O)(=O)O)C2=O is ____.
8

Fill in the blank: the reported MIC of CC1=C[C@@H]2CN(C(=O)N2OS(=O)(=O)O)[C@@H]1C(N)=O is ____.
4

Fill in the blank: the reported MIC of CC1=C[C@@H](C#N)N2C[C@@H]1N(OS(=O)(=O)O)C2=O is ____.
64

Fill in the blank: the reported MIC of NC(=O)[C@@H]1CC[C@@H]2CN1C(=O)N2OS(=O)(=O)O is ____.
8

###

# Target Desc: Beta-lactamase TEM (Escherichia coli, UniProt P62593)
# Sequence (P62593 whole entry): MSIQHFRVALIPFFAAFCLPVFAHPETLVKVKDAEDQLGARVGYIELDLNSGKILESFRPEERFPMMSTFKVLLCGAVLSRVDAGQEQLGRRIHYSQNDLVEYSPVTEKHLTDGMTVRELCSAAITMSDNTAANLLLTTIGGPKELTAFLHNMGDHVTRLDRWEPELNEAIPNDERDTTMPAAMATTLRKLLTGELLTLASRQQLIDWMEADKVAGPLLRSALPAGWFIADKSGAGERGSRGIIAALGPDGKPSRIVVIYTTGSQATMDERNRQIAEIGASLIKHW
# Procedure Text: Inhibition of Escherichia coli TEM-1 beta-lactamase
Quantity: Ki
In your response, the unit should come after the numeric value.

Fill in the blank: the reported Ki of CC(=O)N[C@@H](Cc1cccc(C(=O)O)c1)B(O)O is ____.
110 nM
